Where do these numbers come from? They come from BindingDB's records for doi:10.1021/jm950641i.

Target: Dimer of Gag-Pol polyprotein [489-587] (Human immunodeficiency virus 1)
Construct: 489-587
Assay: Protease Inhibition Assay
Conditions: pH 6.25; 37 °C
Description: Enzymatic activity was measured by following cleavage of the substrate H-Lys-Ala-Arg-Val-Leu-pNph-Glu-Ala-Nle-NH2. Products of the cleavage reaction were quantified by HPLC detection.
measure_name: log10(Ki) (log10 of the value in nM)
In our notation, the value equals log10 of Ki in nM.

Consider the compound CC(C)C1NC(=O)[C@@H](C(O)[C@H](Cc2ccccc2)NC(=O)OC2CCOC2)NCc2ccc(cc2)OCCOCCNC1=O (some centres not stated) and give its measured log10(Ki).
0.91

Another compound to look at: COc1ccc(CN[C@@H](C(=O)N[C@H]2c3ccccc3CC2O)C(O)[C@H](Cc2ccccc2)NC(=O)[C@@H](NC(=O)OCc2ccccc2)C(C)(C)C)cc1 (some centres not stated)
0.98
